Target: Programmed cell death 1 ligand 2 (Mus musculus)
Sequence (Q9WUL5 whole entry): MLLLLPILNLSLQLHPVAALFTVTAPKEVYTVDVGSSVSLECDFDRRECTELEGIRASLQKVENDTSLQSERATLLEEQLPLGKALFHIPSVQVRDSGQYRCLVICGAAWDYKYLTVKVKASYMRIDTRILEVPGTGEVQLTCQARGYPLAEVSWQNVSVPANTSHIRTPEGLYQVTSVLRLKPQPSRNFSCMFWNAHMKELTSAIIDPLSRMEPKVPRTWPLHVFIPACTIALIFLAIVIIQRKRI
Test: Inhibition of PD-L2 in mouse splenocytes assessed as increase in INFgamma production
Quantity Kind: pEC50
Keep in mind that pEC50 stands for -log10 of concentration in molar terms.

**Query** Quick one: pEC50 for CC(O)[C@H](NC(=O)N[C@@H](CC(N)=O)c1nnc([C@@H](N)CO)s1)C(=O)O (stereo partly specified) ?
**Result** 7.26

---

Entries annotated with measured Kd
Experiment: Binding affinity to human PD-1
Express it in µM; write the number only.

| Substance | Kd, µM |
| --- | --- |
| H-FNWDYSLEELREKAKYK-OH | 3.14 |
| H-LDYGDKREGQMAE-OH | 21.6 |
| H-GIDYEERWK-OH | 28.3 |
| H-FNWDYSWKSERLKEAYDL-OH | 339 |

Now for another entry.
**Query** Field request: Kd | item: H-LDYVNRRKMYQ-OH
**Result** 3.32

---

Target: Programmed cell death 1 ligand 2 (Homo sapiens, UniProt Q9BQ51)
Sequence (Q9BQ51 whole entry): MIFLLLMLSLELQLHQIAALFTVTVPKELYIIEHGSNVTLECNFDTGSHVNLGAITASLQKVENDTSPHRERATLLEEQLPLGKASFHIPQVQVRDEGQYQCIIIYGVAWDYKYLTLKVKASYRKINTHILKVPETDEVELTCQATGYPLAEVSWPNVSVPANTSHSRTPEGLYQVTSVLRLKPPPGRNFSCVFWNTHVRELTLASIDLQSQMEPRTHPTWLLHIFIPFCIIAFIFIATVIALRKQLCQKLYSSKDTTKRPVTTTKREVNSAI
Experiment: Inhibition of PD-L2 in human PBMCs assessed as increase in INFgamma production
Quantity Kind: pEC50
Note: pEC50 values are expressed as the negative base-10 logarithm of concentration in M.

**Query** # lookup: pEC50 of CC(O)[C@H](NC(=O)N[C@@H](CC(N)=O)c1nnc([C@@H](N)CO)s1)C(=O)O (stereo partly specified)
**Result** 6.83

---

Molecular target: Programmed cell death 1 ligand 1 (Homo sapiens)
Sequence (Q9NZQ7 whole entry): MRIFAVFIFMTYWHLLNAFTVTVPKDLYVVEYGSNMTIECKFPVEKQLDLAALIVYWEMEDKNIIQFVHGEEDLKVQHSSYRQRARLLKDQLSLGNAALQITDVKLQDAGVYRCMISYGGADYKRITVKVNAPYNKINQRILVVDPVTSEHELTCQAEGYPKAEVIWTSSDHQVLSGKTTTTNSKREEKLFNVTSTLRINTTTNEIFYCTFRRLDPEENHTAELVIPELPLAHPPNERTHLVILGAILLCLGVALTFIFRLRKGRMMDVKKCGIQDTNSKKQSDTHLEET
Test: Inhibition of PD-L1 in human PBMCs assessed as increase in INFgamma production
Quantity Kind: EC50 (nM)
Give the value in nM but do not write nM after it.

**Query** Dear colleague, I am looking for the recorded EC50 of the following compound: CC(O)[C@H](NC(=O)N[C@@H](CC(N)=O)c1nnc([C@@H](N)CO)s1)C(=O)O (stereo partly specified)
**Result** 56.4
